The measured values listed here are drawn from a melting point compilation (Tetko et al.; mined from patent text by program, amines drawn as free bases though some values may be those of a salt).

PARAMETER_MEASURED: melting point

{"COMPOUND": "CCOc1ccc(-c2ccc3c(c2)C=C(C(=O)Nc2ccc(CCl)cc2)CCO3)cc1", "PARAMETER_MEASURED": "melting point", "RESULT": "187 to 189 °C"}
{"COMPOUND": "COc1cc(F)c(C2CNCc3ccsc32)cc1OC (stereo unspecified)", "PARAMETER_MEASURED": "melting point", "RESULT": "108 to 111 °C"}
{"COMPOUND": "c1cncc(-c2nc3ncccc3[nH]2)c1", "PARAMETER_MEASURED": "melting point", "RESULT": "133 to 135 °C"}
{"COMPOUND": "O=C(O)C1CCC(O)CC1 (stereo unspecified)", "PARAMETER_MEASURED": "melting point", "RESULT": "110 to 130 °C"}
{"COMPOUND": "CS(=O)(=O)Nc1ccc([N+](=O)[O-])cn1", "PARAMETER_MEASURED": "melting point", "RESULT": "217 to 220 °C"}
{"COMPOUND": "COc1ccc(C(=O)N2CCC(N3CCc4ccccc43)c3ccccc32)cc1OC (stereo unspecified)", "PARAMETER_MEASURED": "melting point", "RESULT": "121 to 123 °C"}
{"COMPOUND": "CN1CCN(c2ccc(/C=C/C(=O)O)cc2)CC1", "PARAMETER_MEASURED": "melting point", "RESULT": "223 to 226 °C"}
{"COMPOUND": "Cc1ccc(S(=O)(=O)NCCCCCCCCCCCn2c3c(c4ccccc4c2=O)C(=O)c2ccccc2-3)cc1", "PARAMETER_MEASURED": "melting point", "RESULT": "170 to 172 °C"}
{"COMPOUND": "O=C(CCl)NCCOCCO", "PARAMETER_MEASURED": "melting point", "RESULT": "130 to 132 °C"}
{"COMPOUND": "CC(=O)c1cc2c(cc1C)C(C)(C)CCC2(C)C", "PARAMETER_MEASURED": "melting point", "RESULT": "54 to 57 °C"}
{"COMPOUND": "COC(=O)CCCNC(=O)/C=C/C=C/c1ccccc1", "PARAMETER_MEASURED": "melting point", "RESULT": "153 to 155 °C"}
{"COMPOUND": "C=Cc1c(N)nc(-c2ccc(Cl)c(OC)c2F)nc1C(=O)OC", "PARAMETER_MEASURED": "melting point", "RESULT": "145 to 147 °C"}
{"COMPOUND": "CC1CCN(c2c(C#N)c3c(c4c2Cc2ccccc2-4)-c2ccccc2C3)CC1", "PARAMETER_MEASURED": "melting point", "RESULT": "166 to 168 °C"}
{"COMPOUND": "N#CNC(=N)NC1CC1", "PARAMETER_MEASURED": "melting point", "RESULT": "106 °C"}
{"COMPOUND": "O=C1CCCN1[C@@H]1c2cc(C(F)(F)C(F)(F)C(F)(F)F)ccc2OC(CF)(CF)[C@H]1O (relative stereo)", "PARAMETER_MEASURED": "melting point", "RESULT": "174 to 175 °C"}
{"COMPOUND": "CCC(CC)C1CC(=O)C(C(=O)NS(=O)(=O)c2ccc(Cl)cc2)C(=O)C1 (stereo unspecified)", "PARAMETER_MEASURED": "melting point", "RESULT": "121 to 122 °C"}
{"COMPOUND": "COC(=O)CCn1c(=O)n(CCN2CCN(c3ccccc3C)CC2)c(=O)c2cscc21", "PARAMETER_MEASURED": "melting point", "RESULT": "149 to 150 °C"}
{"COMPOUND": "O=c1ncc(Cl)cn1CSc1ccc(Cl)cc1", "PARAMETER_MEASURED": "melting point", "RESULT": "191 °C"}
{"COMPOUND": "CC(C)(C)CNc1nc(C#N)nc2ccc(OCc3ccccn3)cc12", "PARAMETER_MEASURED": "melting point", "RESULT": "160 °C"}
{"COMPOUND": "CC1(O)CC2(C)C(=O)CCC2C2CCC3=CC(=O)CCC3(C)C21 (stereo unspecified)", "PARAMETER_MEASURED": "melting point", "RESULT": "150 to 151 °C"}
{"COMPOUND": "O=[N+]([O-])c1cc(Cl)c(N=C2NCCCN2)c(Cl)c1", "PARAMETER_MEASURED": "melting point", "RESULT": "265 °C"}
{"COMPOUND": "O=[N+]([O-])C(CN(Cc1ccccc1)Cc1ccccc1)=C1NCCCS1", "PARAMETER_MEASURED": "melting point", "RESULT": "108 to 110 °C"}
{"COMPOUND": "Cc1ccccc1C(=O)Nc1ccc(C(=O)O)cc1", "PARAMETER_MEASURED": "melting point", "RESULT": "270 to 275 °C"}
{"COMPOUND": "CC(C)n1c(=O)n(C(=O)NCC2(O)CCN(CC3(C(=O)O)CCCCC3)CC2)c2ccccc21", "PARAMETER_MEASURED": "melting point", "RESULT": "184 °C"}
{"COMPOUND": "Nc1ccccc1Nc1ccc(C(=NO)c2ccccc2)cc1", "PARAMETER_MEASURED": "melting point", "RESULT": "89 to 91 °C"}
{"COMPOUND": "CN(CCF)c1nc2cc(NC(=O)c3c(C(=O)N4CCC4)cnn3C)ccn2n1", "PARAMETER_MEASURED": "melting point", "RESULT": "236 to 237 °C"}
{"COMPOUND": "CCOC(=O)COc1ccc(Cn2c(-c3ccc(OCc4ccccc4)cc3)c(C)c3cc(OCc4ccccc4)ccc32)cc1", "PARAMETER_MEASURED": "melting point", "RESULT": "129 to 131 °C"}
{"COMPOUND": "CSc1sc(-c2nnc(C)o2)c2c1C(=O)CC(C)(C)C2", "PARAMETER_MEASURED": "melting point", "RESULT": "186 to 188 °C"}
{"COMPOUND": "CCCn1c(=O)c2c(nc(C=Cc3cc(OC)c(OC)c(OC)c3S(N)(=O)=O)n2C)n(CCC)c1=O", "PARAMETER_MEASURED": "melting point", "RESULT": "243 to 245 °C"}
{"COMPOUND": "Cc1ncc2c(c1O)COC2(C)c1ccccc1 (stereo unspecified)", "PARAMETER_MEASURED": "melting point", "RESULT": "245 °C"}
{"COMPOUND": "CCCCNC(=O)NCCC", "PARAMETER_MEASURED": "melting point", "RESULT": "70 to 72 °C"}
{"COMPOUND": "CC(C)(C)OC(=O)CN(C(=O)CN1C(=O)c2ccccc2C1=O)c1ccccc1-c1ccccc1", "PARAMETER_MEASURED": "melting point", "RESULT": "145 °C"}
{"COMPOUND": "C=CC(C)c1cc(C)c2c(c1O)C(N(C)C(C)=O)C1CCCCC21 (stereo unspecified)", "PARAMETER_MEASURED": "melting point", "RESULT": "143 to 145 °C"}
{"COMPOUND": "O=C(/C=C/c1ccc(C(=O)Nc2cccc(Nc3nc(-c4cccnc4)cs3)c2)s1)NOC1CCCCO1 (stereo unspecified)", "PARAMETER_MEASURED": "melting point", "RESULT": "170 °C"}
{"COMPOUND": "Cc1c(-c2ccccc2)nc2ccccc2c1C(=O)N[C@@H](C)C1CCCCC1", "PARAMETER_MEASURED": "melting point", "RESULT": "177 to 180 °C"}
{"COMPOUND": "O=C(O)c1cn(C2CC2)c2c(F)c(N3CC(CNC(=O)C(F)(F)F)C3)c(F)cc2c1=O", "PARAMETER_MEASURED": "melting point", "RESULT": "145 to 150 °C"}
{"COMPOUND": "Clc1cccc(C2(Cn3cncn3)OCCO2)c1", "PARAMETER_MEASURED": "melting point", "RESULT": "114 °C"}
{"COMPOUND": "CCCCc1nc2c(N)nc3ccccc3c2n1CCCCSc1ccccc1", "PARAMETER_MEASURED": "melting point", "RESULT": "118 to 120 °C"}
{"COMPOUND": "COC(=O)C(N)C(C)(C)SSc1ccccc1C(=O)Nc1ccc(S(N)(=O)=O)cc1 (stereo unspecified)", "PARAMETER_MEASURED": "melting point", "RESULT": "140 to 142 °C"}
{"COMPOUND": "CC(C(N)=O)c1ccc2c(c1)CCc1ccccc1O2 (stereo unspecified)", "PARAMETER_MEASURED": "melting point", "RESULT": "122 to 123 °C"}
{"COMPOUND": "COc1ccc(C=CC(=O)N2CCN(c3nc(N)c4cc(OC)c(OC)cc4n3)CC2)cc1", "PARAMETER_MEASURED": "melting point", "RESULT": "265 to 267 °C"}
